Biological target: FGFR2 (Homo sapiens (Human))
Sequence (P21802 22-821): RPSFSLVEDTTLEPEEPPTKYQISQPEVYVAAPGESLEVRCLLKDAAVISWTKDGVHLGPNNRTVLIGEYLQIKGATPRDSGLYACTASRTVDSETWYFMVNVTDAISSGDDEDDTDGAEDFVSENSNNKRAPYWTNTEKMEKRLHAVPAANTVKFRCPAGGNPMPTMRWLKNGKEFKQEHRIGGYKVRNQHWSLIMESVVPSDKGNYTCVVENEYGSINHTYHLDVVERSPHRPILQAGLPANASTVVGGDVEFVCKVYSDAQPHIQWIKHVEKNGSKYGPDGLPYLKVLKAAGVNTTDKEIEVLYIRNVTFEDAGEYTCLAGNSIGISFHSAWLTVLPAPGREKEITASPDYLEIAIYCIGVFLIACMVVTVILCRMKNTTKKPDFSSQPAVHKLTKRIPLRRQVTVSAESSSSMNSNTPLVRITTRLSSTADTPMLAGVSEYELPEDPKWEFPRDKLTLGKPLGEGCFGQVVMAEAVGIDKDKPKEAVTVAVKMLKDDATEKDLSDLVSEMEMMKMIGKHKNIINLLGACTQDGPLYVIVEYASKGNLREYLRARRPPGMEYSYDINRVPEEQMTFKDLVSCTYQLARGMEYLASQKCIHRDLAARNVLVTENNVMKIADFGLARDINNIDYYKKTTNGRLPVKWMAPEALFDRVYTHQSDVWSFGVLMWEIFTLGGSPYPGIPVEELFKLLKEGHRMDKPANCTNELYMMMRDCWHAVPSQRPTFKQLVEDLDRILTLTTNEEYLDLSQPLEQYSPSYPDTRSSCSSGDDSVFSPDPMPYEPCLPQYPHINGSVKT
Experiment: Biochemical FGFR2 Caliper assay
recorded_metric: IC50

Please review the following examples before continuing.
>>> print(df.to_string())
                                   molecule  recorded_metric    endpoint_result
0  C=CC(=O)Nc1cccc(-c2c(C3=CC[C@H](C(=O)N4CCCC4)CC3)c3c(N)ncnc3n2C)c1 [Example 1018]             IC50           < 100 nM
1  COCC#Cc1cc(OC)c(-c2c(-c3ccc(Oc4nccc(C)n4)c(F)c3)c3c(C)ncnc3n2C)cn1 [Example 1430]             IC50           < 100 nM
2  C=C(C)C(=O)Nc1ccc(-c2c(-c3ccc(NC(=O)OCC)nc3)c3c(N)ncnc3n2C)cc1 [Example 1303]             IC50  1000 to 100000 nM
3  C=C(C)C(=O)Nc1ccc(-c2c(-c3ccc(C(=O)N[C@H]4C[C@H](F)C4)c(COC)c3)c3c(N)ncnc3n2C)cc1 [Example 966]             IC50           < 100 nM
4  C=C(C)C(=O)Nc1ccc(-c2c(C3=CC[C@@H](C(=O)NC4CCCC4)CC3)c3c(N)ncnc3n2C)cc1 (single isomer, unassigned) [Example 958]             IC50     250 to 1000 nM

Query block: Which IC50 value is on record for C=CC(=O)Nc1ccc(-c2c(-c3ccc(Oc4nccc(C)n4)c(C)c3)c3c(N)ncnc3n2C)c(F)c1 [Example 1075] ?
Result block: < 100 nM

Query block: Which IC50 value is on record for C#Cc1ccc2cc(-c3c(-c4ccc(Oc5nccc(C)n5)c(F)c4)c4c(N)ncnc4n3C)ccc2n1 [Example 1405] ?
Result block: < 100 nM

Query block: Which IC50 value is on record for C=CC(=O)Nc1ccc(-c2c(-c3ccc(Oc4cccc(C)n4)cc3)c3c(N)ncnn3c2CO)cc1 [Example 835] ?
Result block: 1000 to 100000 nM
